study-system: T1, Antigen CD66c (CEACAM6; Sino Biological, Inc.) (UniProt P40199 35-320)
T1 construct: Bought antigen, coated on the ELISA plate; construct not described; also called CECACAM6 (CD66c) antigen; CD66c antigen
T1 sequence (looked up): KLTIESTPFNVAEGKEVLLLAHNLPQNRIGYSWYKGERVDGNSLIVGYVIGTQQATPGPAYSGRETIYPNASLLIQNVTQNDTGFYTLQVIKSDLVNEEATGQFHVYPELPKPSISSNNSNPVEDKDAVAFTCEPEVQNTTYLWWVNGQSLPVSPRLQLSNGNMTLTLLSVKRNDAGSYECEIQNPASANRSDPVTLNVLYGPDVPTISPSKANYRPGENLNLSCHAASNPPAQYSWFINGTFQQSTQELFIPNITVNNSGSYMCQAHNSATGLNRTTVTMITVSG
test-protocol: ELISA, CEACAM6 coated 100 ng/well, antibody at 10000.00 ng/ml
Exercise: for every item that follows, state its recorded OD 450 nm.
Numbers only, in OD 450 nm.

Dear colleague, could you please provide OD 450 nm for the binders listed below?
1. recombinant humanized anti-CD66c antibody Protein ID 2938 (Vk5 + VH7) (antibody, human IgG1, V domains shown, also called hu 2938) VH: QVQLVQSGAEVKKPGASMKISCKASGYSFTDYTMNWVRQAPGQGLEWIGLINPFHGGTVSNQRFKVKATLTVDVSTNTAYMELSRLRSDDTAVYYCVRGDPVRHYYALAYWGQGTLVTVSS VL: DIQMTQSPSTLSASVGDRVTITCGASENVYGTLAWYQRKPGKAPKLLIYGATNLADGVPSRFSGSGSGREYTLTISSLQPDDFATYYCQNVLSAPYTFGGGTKLEIK
2. recombinant humanized anti-CD66c antibody Protein ID 3058 (Vk8 + VH11) (antibody, human IgG1, V domains shown, also called hu 3058; #86) VH: QVQLVQSGAEVKKPGASVKISCKASGYSFTDYTMHWVKQAPGQNLEWIGLINPFGGSTSYAQKFKGRVTMTRDTSTNTAYMELSRLRSDDTAVYYCVRGDPVRHYYALAYWGQGTLVTVSS VL: DIQMTQSPSTLSASVGDRVTITCRASENVYGTLNWYQRKPGKAPKLLIYGATNLADGMPSRFSGSGSGTEYTLTISSLQPDDFATYYCQNVLSAPYTFGGGTKLEIK

Result:
3.43
2.87

// sample recombinant humanized anti-CD66c antibody Protein ID 3019 (Vk7 + VH10) (antibody, human IgG1, V domains shown, also called hu 3019; #51) VH: QVQLVQSGAEVKKPGASVKVSCKASGYSFTDYTMNWVKQAPGQNLEWIGLINPFHGGTVSNQRFKVKATMTVDVSTNTAYMELSRLRSDDTAVYYCVRGDPVRHYYALAYWGQGTLVTVSS VL: DIQMTQSPSTLSASVGDRVTITCGASENVYGTLNWYQRKPGKAPKLLIYGATNLADGVPSRFSGSGSGTEYTLTISSLQPDDFATYYCQNVLSAPYTFGGGTKLEIK , its OD 450 nm was 3.13
